- TEST SUMMARY: Oral pharmacokinetics in dogs
- RUN CONDITIONS: dog, in vivo, oral administration 5 mg/kg, read-out: bioavailability F
OBSERVATION TYPE: bioavailability (%)
The response must be a number in % with no trailing unit.

Query: bioavailability; subject: COc1cc(Cl)cc(C(C)Nc2cc(N3CCNCC3)ccc2S(C)(=O)=O)c1OC.Cl (stereo not shown) [Compound A]
81

----------
- MEASUREMENT TARGET: CYP2C9 (Homo sapiens, UniProt P11712)
- Sequence (P11712 whole entry): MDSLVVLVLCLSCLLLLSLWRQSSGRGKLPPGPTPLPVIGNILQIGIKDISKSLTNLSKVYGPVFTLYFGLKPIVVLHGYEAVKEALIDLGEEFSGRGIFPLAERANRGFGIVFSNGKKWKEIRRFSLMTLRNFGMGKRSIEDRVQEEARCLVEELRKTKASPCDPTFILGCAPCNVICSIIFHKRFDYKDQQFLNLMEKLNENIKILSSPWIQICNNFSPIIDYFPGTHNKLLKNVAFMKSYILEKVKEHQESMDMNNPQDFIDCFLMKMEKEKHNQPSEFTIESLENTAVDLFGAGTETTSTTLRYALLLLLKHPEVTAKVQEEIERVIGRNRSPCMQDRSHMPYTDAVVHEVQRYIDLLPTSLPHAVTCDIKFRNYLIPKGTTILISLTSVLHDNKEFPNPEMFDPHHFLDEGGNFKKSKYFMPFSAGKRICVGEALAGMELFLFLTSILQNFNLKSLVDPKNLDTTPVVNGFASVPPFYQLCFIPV
- TEST SUMMARY: CYP inhibition CYP2C9
OBSERVATION TYPE: IC50

Query: IC50; subject: COc1cc(Cl)cc(C(C)Nc2cc(N3CCNCC3)ccc2S(C)(=O)=O)c1OC.Cl (stereo not shown) [Compound A, hydrochloride]
> 7.5 µM

----------
Some molecules, each annotated with its measured IC50.
- MEASUREMENT TARGET: M1 (Homo sapiens)
- Sequence (P11229 whole entry): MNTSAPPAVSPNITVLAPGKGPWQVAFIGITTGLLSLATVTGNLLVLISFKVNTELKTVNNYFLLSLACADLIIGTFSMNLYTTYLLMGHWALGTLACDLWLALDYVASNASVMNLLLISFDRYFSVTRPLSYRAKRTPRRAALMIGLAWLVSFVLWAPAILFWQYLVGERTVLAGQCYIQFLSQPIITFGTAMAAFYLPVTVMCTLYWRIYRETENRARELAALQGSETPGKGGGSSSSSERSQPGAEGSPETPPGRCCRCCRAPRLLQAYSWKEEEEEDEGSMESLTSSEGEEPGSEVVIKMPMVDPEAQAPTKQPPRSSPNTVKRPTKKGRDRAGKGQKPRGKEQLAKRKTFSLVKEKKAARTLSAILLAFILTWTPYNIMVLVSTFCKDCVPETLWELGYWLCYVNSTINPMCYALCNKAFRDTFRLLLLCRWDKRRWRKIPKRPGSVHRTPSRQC
Where a name gives a salt, the structure may show the parent alone.
The response must be a number in µM with no trailing unit.

COc1cc(Cl)cc(C(C)Nc2cc(N3CCNCC3)ccc2S(C)(=O)=O)c1OC.Cl (centres unmarked) [Compound A, hydrochloride]; 3.4

Here's the next entry for you.
Query: IC50; subject: CC(Nc1cc(N2CCNCC2)ccc1S(C)(=O)=O)c1cc(Cl)cc2c1OCCO2 (centres unmarked) [Cpd. E, hydrochloride]
10

----------
- MEASUREMENT TARGET: α2
- TEST SUMMARY: Compound Binding Profiles: α2
- RUN CONDITIONS: * = Estimated IC50; hydrochloride
Structures can show the parent of a compound that is named as a salt.
OBSERVATION TYPE: IC50
Answer format: value, then unit.

Query: IC50; subject: CC(Nc1cc(N2CCNCC2)ccc1S(C)(=O)=O)c1cc(Cl)cc2c1OCCO2 (stereo not shown) [Cpd. E, hydrochloride]
30 µM

----------
pKi: −log10 of the molar value. Where a name gives a salt, the structure may show the parent alone.
5HT1A (Homo sapiens, UniProt P08908): recorded pKi for assorted compounds
Sequence (P08908 whole entry, species assumed): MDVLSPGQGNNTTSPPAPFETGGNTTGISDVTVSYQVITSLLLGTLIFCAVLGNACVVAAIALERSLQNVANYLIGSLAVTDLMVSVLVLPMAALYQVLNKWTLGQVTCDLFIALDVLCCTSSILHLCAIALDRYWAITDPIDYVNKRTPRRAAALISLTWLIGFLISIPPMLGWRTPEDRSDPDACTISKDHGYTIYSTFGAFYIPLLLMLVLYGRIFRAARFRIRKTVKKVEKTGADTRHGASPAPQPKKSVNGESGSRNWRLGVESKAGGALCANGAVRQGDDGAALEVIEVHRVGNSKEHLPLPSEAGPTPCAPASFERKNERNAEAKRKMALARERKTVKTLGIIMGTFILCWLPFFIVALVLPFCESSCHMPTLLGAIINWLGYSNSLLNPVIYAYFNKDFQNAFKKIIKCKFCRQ

Give recorded pKi with 5HT1A (Homo sapiens, UniProt P08908) for the following compound: O=C1Cc2cc(CCN3CCN(c4nsc5ccccc45)CC3)c(Cl)cc2N1 [Ziprasidome, reference compound]
> 8.00

Give recorded pKi with 5HT1A (Homo sapiens, UniProt P08908) for the following compound: CC(Nc1cc(N2CCNCC2)ccc1S(C)(=O)=O)c1cc(Cl)cc2c1OCCO2 (centres unmarked) [Cpd. E, hydrochloride]
6.00 to 7.00

----------
- MEASUREMENT TARGET: D3 (Homo sapiens, UniProt P35462)
- Sequence (P35462 whole entry): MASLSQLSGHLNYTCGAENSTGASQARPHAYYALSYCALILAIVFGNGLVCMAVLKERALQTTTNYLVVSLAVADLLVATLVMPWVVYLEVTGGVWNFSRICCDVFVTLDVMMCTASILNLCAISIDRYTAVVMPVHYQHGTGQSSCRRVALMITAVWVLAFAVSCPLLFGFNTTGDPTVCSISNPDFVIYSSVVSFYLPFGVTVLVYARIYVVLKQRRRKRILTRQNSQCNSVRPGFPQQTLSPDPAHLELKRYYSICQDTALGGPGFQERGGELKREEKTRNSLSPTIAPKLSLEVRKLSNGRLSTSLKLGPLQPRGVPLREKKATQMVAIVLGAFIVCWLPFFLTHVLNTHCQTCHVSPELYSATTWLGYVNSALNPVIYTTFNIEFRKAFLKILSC
Structures can show the parent of a compound that is named as a salt.
OBSERVATION TYPE: Ki (nM)
The response must be a number in nM with no trailing unit.

Query: Ki; subject: CC(Nc1cc(N2CCNCC2)ccc1S(C)(=O)=O)c1cc(Cl)cc2c1OCCO2 (stereo not shown) [Cpd. E, hydrochloride]
2.8

----------
- MEASUREMENT TARGET: CYP2D6 (Homo sapiens)
- Sequence (P10635 whole entry): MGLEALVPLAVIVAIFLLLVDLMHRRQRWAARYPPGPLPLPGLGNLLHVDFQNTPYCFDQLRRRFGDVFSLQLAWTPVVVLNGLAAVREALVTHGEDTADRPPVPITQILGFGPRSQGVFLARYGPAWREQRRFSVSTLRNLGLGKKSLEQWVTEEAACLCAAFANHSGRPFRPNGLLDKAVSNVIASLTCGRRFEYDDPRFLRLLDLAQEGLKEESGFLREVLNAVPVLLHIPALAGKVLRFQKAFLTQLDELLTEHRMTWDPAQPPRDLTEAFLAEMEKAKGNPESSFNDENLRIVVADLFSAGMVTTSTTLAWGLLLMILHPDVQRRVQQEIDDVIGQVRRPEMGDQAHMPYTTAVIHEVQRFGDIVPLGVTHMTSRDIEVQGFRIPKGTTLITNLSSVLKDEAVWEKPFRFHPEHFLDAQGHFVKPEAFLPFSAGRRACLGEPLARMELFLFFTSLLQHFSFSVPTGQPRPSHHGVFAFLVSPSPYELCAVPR
- TEST SUMMARY: CYP inhibition CYP2D6
OBSERVATION TYPE: IC50 (µM)
The response must be a number in µM with no trailing unit.

Query: IC50; subject: COc1cc(Cl)cc(C(C)Nc2cc(N3CCNCC3)ccc2S(C)(=O)=O)c1OC.Cl (stereo not shown) [Compound A, hydrochloride]
7.81

----------
- MEASUREMENT TARGET: D2 (Homo sapiens, UniProt P14416)
- Sequence (P14416 whole entry): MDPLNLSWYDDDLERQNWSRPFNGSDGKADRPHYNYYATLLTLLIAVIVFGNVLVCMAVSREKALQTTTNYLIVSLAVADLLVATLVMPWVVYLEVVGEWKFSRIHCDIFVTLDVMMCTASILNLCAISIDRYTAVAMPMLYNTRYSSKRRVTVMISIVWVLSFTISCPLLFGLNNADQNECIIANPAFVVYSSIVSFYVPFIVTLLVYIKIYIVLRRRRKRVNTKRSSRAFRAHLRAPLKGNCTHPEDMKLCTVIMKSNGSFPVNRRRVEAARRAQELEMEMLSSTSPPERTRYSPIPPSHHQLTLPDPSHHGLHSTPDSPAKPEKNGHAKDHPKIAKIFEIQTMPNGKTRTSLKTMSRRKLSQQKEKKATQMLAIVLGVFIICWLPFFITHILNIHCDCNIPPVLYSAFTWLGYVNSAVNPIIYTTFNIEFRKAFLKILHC
- TEST SUMMARY: Compound Binding Profiles: D2
- RUN CONDITIONS: * = Estimated IC50
Structures can show the parent of a compound that is named as a salt.
Some molecules, each annotated with its measured IC50.
The response must be a number in µM with no trailing unit.

CC(Nc1cc(N2CCNCC2)ccc1S(C)(=O)=O)c1cc(Cl)cc2c1OCCO2 (centres unmarked) [Cpd. E, hydrochloride]; 0.613

Query: IC50; subject: COc1cc(Cl)cc(C(C)Nc2cc(N3CCNCC3)ccc2S(C)(=O)=O)c1OC.Cl (centres unmarked) [Compound A, hydrochloride]
9

----------
- MEASUREMENT TARGET: D4 (Homo sapiens, UniProt P21917)
- Sequence (P21917 1-419): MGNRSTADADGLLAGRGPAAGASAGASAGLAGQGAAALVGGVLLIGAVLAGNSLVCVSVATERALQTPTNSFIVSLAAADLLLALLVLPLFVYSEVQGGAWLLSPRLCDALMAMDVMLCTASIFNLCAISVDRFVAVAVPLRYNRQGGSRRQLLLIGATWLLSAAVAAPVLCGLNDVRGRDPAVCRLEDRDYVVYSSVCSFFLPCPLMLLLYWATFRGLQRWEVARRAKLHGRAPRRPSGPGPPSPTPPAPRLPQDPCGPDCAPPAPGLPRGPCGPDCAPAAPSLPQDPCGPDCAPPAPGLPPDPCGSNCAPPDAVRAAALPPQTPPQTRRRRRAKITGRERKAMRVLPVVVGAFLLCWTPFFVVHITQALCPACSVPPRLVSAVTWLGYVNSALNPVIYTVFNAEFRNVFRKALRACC
Counter-ions that a name gives are not always drawn.
Some molecules, each annotated with its measured Ki.

CC(Nc1cc(N2CCNCC2)ccc1S(C)(=O)=O)c1cc(Cl)cc2c1OCCO2 (centres unmarked) [Cpd. E, hydrochloride]; 100 to 1000 nM

Here's the next entry for you.
Query: Ki; subject: COc1cc(Cl)cc(C(C)Nc2cc(N3CCNCC3)ccc2S(C)(=O)=O)c1OC.Cl (centres unmarked) [Compound A, hydrochloride]
100 to 1000 nM

----------
- MEASUREMENT TARGET: 5HT2A (Homo sapiens, UniProt P28223)
- Sequence (P28223 whole entry, species assumed): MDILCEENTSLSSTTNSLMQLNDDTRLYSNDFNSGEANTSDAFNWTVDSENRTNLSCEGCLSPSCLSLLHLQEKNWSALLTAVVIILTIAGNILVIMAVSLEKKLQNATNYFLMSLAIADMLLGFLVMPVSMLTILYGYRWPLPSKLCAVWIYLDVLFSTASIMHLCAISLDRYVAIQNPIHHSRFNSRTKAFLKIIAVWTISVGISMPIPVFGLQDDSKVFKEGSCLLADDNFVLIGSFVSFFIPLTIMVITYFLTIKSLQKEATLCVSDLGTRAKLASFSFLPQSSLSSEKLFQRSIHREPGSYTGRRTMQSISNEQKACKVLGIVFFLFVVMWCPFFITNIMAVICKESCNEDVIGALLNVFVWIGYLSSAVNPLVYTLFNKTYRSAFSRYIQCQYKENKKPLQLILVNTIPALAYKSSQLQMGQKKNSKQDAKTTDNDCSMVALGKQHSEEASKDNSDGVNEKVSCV
Counter-ions that a name gives are not always drawn.
OBSERVATION TYPE: pKi
Note on units: pKi is unitless, being -log10 of a concentration expressed in mol/L.

Give recorded pKi with 5HT2A (Homo sapiens, UniProt P28223) for the following compound: CC(Nc1cc(N2CCNCC2)ccc1S(C)(=O)=O)c1cc(Cl)cc2c1OCCO2 (stereo not shown) [Cpd. E, hydrochloride]
6.82

----------
H1 (Homo sapiens, UniProt P35367): recorded IC50 for assorted compounds
Sequence (P35367 whole entry): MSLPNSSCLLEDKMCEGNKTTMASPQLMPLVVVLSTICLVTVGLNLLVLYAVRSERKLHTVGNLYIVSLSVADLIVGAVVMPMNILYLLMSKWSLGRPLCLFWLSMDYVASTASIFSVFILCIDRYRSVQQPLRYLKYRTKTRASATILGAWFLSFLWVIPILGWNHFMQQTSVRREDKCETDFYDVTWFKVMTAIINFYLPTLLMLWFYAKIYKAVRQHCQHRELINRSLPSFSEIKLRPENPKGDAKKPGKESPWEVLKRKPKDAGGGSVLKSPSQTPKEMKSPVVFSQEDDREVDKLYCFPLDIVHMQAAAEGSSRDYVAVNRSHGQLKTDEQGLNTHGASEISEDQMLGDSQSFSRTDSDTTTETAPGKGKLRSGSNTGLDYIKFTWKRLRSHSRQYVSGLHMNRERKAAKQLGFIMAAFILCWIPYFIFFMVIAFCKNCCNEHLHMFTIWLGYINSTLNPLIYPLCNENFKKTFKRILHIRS
Structures can show the parent of a compound that is named as a salt.
Answer format: value, then unit.

COc1cc(Cl)cc(C(C)Nc2cc(N3CCNCC3)ccc2S(C)(=O)=O)c1OC.Cl (centres unmarked) [Compound A, hydrochloride]; 22 µM

Here's the next entry for you.
Give recorded IC50 with H1 (Homo sapiens, UniProt P35367) for the following compound: CC(Nc1cc(N2CCNCC2)ccc1S(C)(=O)=O)c1cc(Cl)cc2c1OCCO2 (centres unmarked) [Cpd. E, hydrochloride]
20 µM

----------
- MEASUREMENT TARGET: α1
- TEST SUMMARY: Compound Binding Profiles: α1
- RUN CONDITIONS: * = Estimated IC50
OBSERVATION TYPE: pIC50
Note on units: pIC50 is unitless, being -log10 of a concentration expressed in mol/L.

Query: pIC50; subject: COc1cc(Cl)cc(C(C)Nc2cc(N3CCNCC3)ccc2S(C)(=O)=O)c1OC.Cl (stereo not shown) [Compound A, hydrochloride]
4.62

----------
- MEASUREMENT TARGET: 5-HT6 receptor (Homo sapiens)
- Sequence (P50406 whole entry): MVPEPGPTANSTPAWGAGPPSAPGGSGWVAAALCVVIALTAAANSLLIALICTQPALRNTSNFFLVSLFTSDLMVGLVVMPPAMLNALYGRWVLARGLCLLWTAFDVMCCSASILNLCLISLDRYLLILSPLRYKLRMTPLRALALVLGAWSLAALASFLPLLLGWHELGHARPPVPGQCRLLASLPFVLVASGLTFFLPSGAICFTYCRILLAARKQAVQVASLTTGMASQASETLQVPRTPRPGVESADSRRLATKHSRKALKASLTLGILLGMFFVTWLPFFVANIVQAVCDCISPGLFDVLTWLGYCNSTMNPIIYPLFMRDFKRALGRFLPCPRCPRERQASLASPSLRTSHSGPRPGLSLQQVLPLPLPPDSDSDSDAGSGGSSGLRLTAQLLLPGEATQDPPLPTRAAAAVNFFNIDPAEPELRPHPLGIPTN
- TEST SUMMARY: 5-HT6 receptor binding
- RUN CONDITIONS: binding profile table; read-out: 5HT6 Ki
Counter-ions that a name gives are not always drawn.
OBSERVATION TYPE: Ki
Answer format: value, then unit.

Query: Ki; subject: CC(Nc1cc(N2CCNCC2)ccc1S(C)(=O)=O)c1cc(Cl)cc2c1OCCO2 (stereo not shown) [Cpd. E, hydrochloride]
1.3 nM

----------
- TEST SUMMARY: Oral pharmacokinetics in dogs
- RUN CONDITIONS: dog, in vivo, oral administration 5 mg/kg, read-out: half-life T1/2 (converted)
OBSERVATION TYPE: half-life (h)
The response must be a number in h with no trailing unit.

Query: half-life; subject: COc1cc(Cl)cc(C(C)Nc2cc(N3CCNCC3)ccc2S(C)(=O)=O)c1OC.Cl (stereo not shown) [Compound A]
5

----------
- MEASUREMENT TARGET: UniProt P28223
OBSERVATION TYPE: IC50 (nM)
The response must be a number in nM with no trailing unit.

Query: IC50; subject: COc1cc(Cl)cc(C(C)Nc2cc(N3CCNCC3)ccc2S(C)(=O)=O)c1OC.Cl (stereo not shown) [Compound A, hydrochloride]
2500

----------
- MEASUREMENT TARGET: α1
- TEST SUMMARY: Compound Binding Profiles: α1
- RUN CONDITIONS: * = Estimated IC50; hydrochloride
Structures can show the parent of a compound that is named as a salt.
OBSERVATION TYPE: IC50 (µM)
The response must be a number in µM with no trailing unit.

Query: IC50; subject: CC(Nc1cc(N2CCNCC2)ccc1S(C)(=O)=O)c1cc(Cl)cc2c1OCCO2 (stereo not shown) [Cpd. E, hydrochloride]
24
